B1: CPEB3 Ribozyme (parent)
chain: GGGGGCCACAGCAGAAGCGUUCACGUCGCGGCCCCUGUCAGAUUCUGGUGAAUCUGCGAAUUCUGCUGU

Variants of: B1
Test: self-cleavage, relative activity (ratio to wild type); higher = more cleavage; co-transcriptional
Reported self-cleavage values for the following variants.
Attribute measured: self-cleavage

Monomer sequence: GGGGGCCACAGCAGAAGCGUUCACGUCGCGGCCCCUGUCAGCUUCUGGUGAUUCUGCGAAUUCUGCUGU [A42C A52U]
Observed: 0.96

Monomer sequence: GGGGGCCACAGCAGGUGCGUUCACGUCGCGGCCCCUGUCAGAUUCUGGUGAAUCUGCGAAUUCUGCUGU [A15G A16U]
Observed: 0.691

Monomer sequence: GGGGGCCACAGCAGAUGCGUUCACGUCGCGGCCCCUGUCAGAUUCUGGUGAAUCUGCGAAUUCUGCUUU [A16U G68U]
Observed: 0.948

Monomer sequence: GGGGGCCACAGCAGAAGCGUUCACGUCGCGGCCCCUUUCAGAUUCUGGUGAAUCUGCGAAUUCUGCGGU [G37U U67G]
Observed: 0.304

Monomer sequence: CGGGGCCACAGCAGAAGCGUUCACGUCGCGGCCCCUGUCAGAUUCUGGUGAAUCUGCGGAUUCUGCUGU [G1C A59G]
Observed: 0.26

Monomer sequence: CGGGGCCACAGCAGAAGCGUUCACGUCGCGGCCCCUGUCAGAUUCUGGUGAAUCUGCGAAUACUGCUGU [G1C U62A]
Observed: 0.279

Monomer sequence: GGGGGCCACAGCAGAAGCGUUCACGUCGCGGCCCAUGUCAGAUUCUGGUGAAUCUGCGAAUUCUGCUCU [C35A G68C]
Observed: 0.345

Monomer sequence: GGGGGCCACAGCAGAAGCGUUCACGUCGCGGCCCCUGUCAGAUUCUGGUCAAUCUUCGAAUUCUGCUGU [G50C G56U]
Observed: 0.842

Monomer sequence: GGGGGCCACAGCAGAAGCGUUCACGUCGCGGCCCCUGUCAGGUUCUGGUGAAUCUCCGAAUUCUGCUGU [A42G G56C]
Observed: 0.475

Monomer sequence: GGGGGCCACAGCAGAAGCGUUCACGUCGCGGCCCCUGUCAGAUUCUGGUGACUCCGCGAAUUCUGCUGU [A52C U55C]
Observed: 0.686

Monomer sequence: GGGGUCCACAGCAGAAUCGUUCACGUCGCGGCCCCUGUCAGAUUCUGGUGAAUCUGCGAAUUCUGCUGU [G5U G17U]
Observed: 0.0412
